Molecular target: human TREM2 (Homo sapiens, UniProt Q9NZC2)
Construct: expressed in transfected cells; host or cells: HEK293T (HEK293T-hTREM2 cells)
Sequence (Q9NZC2 19-230): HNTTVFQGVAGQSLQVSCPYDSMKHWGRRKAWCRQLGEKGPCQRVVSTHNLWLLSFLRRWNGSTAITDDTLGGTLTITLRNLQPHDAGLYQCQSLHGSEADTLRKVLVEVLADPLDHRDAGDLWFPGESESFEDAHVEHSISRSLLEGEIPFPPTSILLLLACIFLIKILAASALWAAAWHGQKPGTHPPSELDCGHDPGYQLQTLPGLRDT
Sequence (O43914 22-113 partner): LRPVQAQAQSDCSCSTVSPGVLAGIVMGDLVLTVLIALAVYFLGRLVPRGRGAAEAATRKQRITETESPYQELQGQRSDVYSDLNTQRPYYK
Test: Cellular phosphorylation of Syk (AlphaLisa) in HEK293T-hTREM2 cells, TREM2 agonist potency
Type: cell-based
Conditions: HEK293 cells expressing human TREM2 and DAP12; pSyk AlphaLisa; Table D

test-smiles | EC50
Cc1cc2c(-c3ccc(Cl)cc3)nn(-c3ccc(C4CC4)nc3)c(=O)c2cc1C | 3 to 100 µM
CC(C)n1ccc(-n2nc(-c3ccc(Cl)cc3)c3cc(Cl)c(Cl)cc3c2=O)cc1=O | 0.5 to 3 µM
Cc1nc2c(=O)n(-c3ccc(OC(F)(F)F)cc3)nc(-c3ccc(Cl)cc3)c2s1 | 3 to 100 µM
Cc1nc2c(=O)n(CCc3ccccc3)nc(-c3ccccc3)c2s1 | 3 to 100 µM
Cc1ccc(-c2nn(CCc3ccccc3)c(=O)c3nc(C)sc23)cc1 | 3 to 100 µM
Cc1nc2c(=O)n(CCc3ccccc3)nc(-c3ccc(O)cc3)c2s1 | 3 to 100 µM
Cc1cc2c(-c3ccc(Cl)cc3)nn(-c3ccnc(N4CCN(C(=O)OC(C)(C)C)CC4)c3)c(=O)c2cc1C | 0.5 to 3 µM
Cc1cc2c(-c3ccc(Cl)cc3)nn(-c3ccc(OC(F)(F)F)cc3)c(=O)c2cc1C | 0.5 to 3 µM
Cc1nc2c(=O)n(CC(=O)c3ccc(Cl)cc3)nc(-c3ccc(Cl)cc3)c2s1 | 3 to 100 µM
Cc1cc2c(-c3ccc(Cl)cc3)nn(-c3ccc(OC(F)(F)F)cc3)c(=O)c2nc1C | 0.5 to 3 µM

----------
Biological target: human TREM2 (Homo sapiens, UniProt Q9NZC2)
Construct: expressed in transfected cells; host or cells: HEK293T (HEK293T-hTREM2 cells)
Assay: Cellular phosphorylation of Syk (AlphaLisa) in HEK293T-hTREM2 cells, TREM2 agonist potency
Assay type: cell-based
Details: HEK293 cells expressing human TREM2 and DAP12; pSyk AlphaLisa; Table D
pEC50: −log10 of the molar value.
Each record here notes measured pEC50.

molecule | target-entity | pEC50
Cc1nc2c(=O)n(CC(O)c3ccc(Cl)cc3)nc(-c3ccc(Cl)cc3)c2s1 (centres unmarked) | human TREM2 (Homo sapiens, UniProt Q9NZC2) | 4.00 to 5.52
Cc1nc2c(=O)n(CC(C)c3ccc(Cl)cc3)nc(-c3ccc(Cl)cc3)c2s1 (centres unmarked) | human TREM2 (Homo sapiens, UniProt Q9NZC2) | 4.00 to 5.52
Cc1cc2c(-c3ccc(Cl)cc3)nn(-c3ccnc(OC4CN(C(=O)OC(C)(C)C)C4)c3)c(=O)c2cc1C | human TREM2 (Homo sapiens, UniProt Q9NZC2) | 5.52 to 6.30
CC(C)C(=O)Nc1nc2c(=O)n(CCc3ccccc3)nc(-c3ccc(Cl)cc3)c2s1 | human TREM2 (Homo sapiens, UniProt Q9NZC2) | 4.00 to 5.52
CC(C)Oc1cc(-n2nc(-c3ccc(Cl)cc3)c3cc(Cl)c(Cl)cc3c2=O)ccn1 | human TREM2 (Homo sapiens, UniProt Q9NZC2) | 5.52 to 6.30
Cc1nc2c(=O)n(-c3ccc(C(=O)NC(C)C)cc3)nc(-c3ccc(Cl)cc3)c2s1 | human TREM2 (Homo sapiens, UniProt Q9NZC2) | 4.00 to 5.52
O=c1c2nc(NCC3CC3)sc2c(-c2ccc(Cl)cc2)nn1CCc1ccccc1 | human TREM2 (Homo sapiens, UniProt Q9NZC2) | 4.00 to 5.52
Cc1nc2c(=O)n(CCc3ccccc3)nc(-c3ccc(Cl)c(Cl)c3)c2s1 | human TREM2 (Homo sapiens, UniProt Q9NZC2) | 4.00 to 5.52
